- Tested on: BHT-101
- assay_text: cells
- Type: functional, cell-based, Homo sapiens
- condition_summary: Homo sapiens, BHT-101
- Description: SANGER: Inhibition of human BHT-101 cell growth in a cell viability assay.
pIC50: −log10 of the molar value.
Listing: pIC50 of selected compounds
readout: pIC50

INSERT INTO assay_data (compound, assay_target, readout, result) VALUES
  ('CCC1=C[C@@H]2CN(C1)Cc1c([nH]c3ccccc13)[C@@](C(=O)OC)(c1cc3c(cc1OC)N(C)[C@H]1[C@@](O)(C(=O)OC)[C@H](OC(C)=O)[C@]4(CC)C=CCN5CC[C@]31[C@@H]54)C2', 'BHT-101', 'pIC50', '< 7.19'),
  ('Cn1cncc1[C@@](N)(c1ccc(Cl)cc1)c1ccc2c(c1)c(-c1cccc(Cl)c1)cc(=O)n2C', 'BHT-101', 'pIC50', 5.51),
  ('O=C(c1cc(Cc2n[nH]c(=O)c3ccccc23)ccc1F)N1CCN(C(=O)C2CC2)CC1', 'BHT-101', 'pIC50', '< 5.30'),
  ('Cn1cc(C2=C(c3ccc(Cl)cc3Cl)C(=O)NC2=O)c2ccccc21', 'BHT-101', 'pIC50', '< 5.00'),
  ('CCOc1nc(NC(=O)Cc2cc(OC)ccc2OC)cc(N)c1C#N', 'BHT-101', 'pIC50', '< 5.00'),
  ('CN(Cc1cnc2nc(N)nc(N)c2n1)c1ccc(C(=O)N[C@@H](CCC(=O)O)C(=O)O)cc1 [METHOTREXATE]', 'BHT-101', 'pIC50', '< 6.70'),
  ('O=c1cc(-c2cccc3c2Sc2ccccc2S3)oc(N2CCOCC2)c1', 'BHT-101', 'pIC50', '< 5.00'),
  ('O=C(NOCC1CC1)c1ccc(F)c(F)c1Nc1ccc(I)cc1Cl', 'BHT-101', 'pIC50', 6.54);
